Value source: patent US5789416A

Catalogue of molecules with associated log10 of EC50
Biological target: adenosine A2 receptors (Rattus norvegicus, UniProt P30543)
Construct: stimulate cAMP production in PC12 cells, a function of agonist stimulation of adenosine A2 receptors; endogenous in cells; host or cells: PC12 cells
Sequence (P30543 whole entry): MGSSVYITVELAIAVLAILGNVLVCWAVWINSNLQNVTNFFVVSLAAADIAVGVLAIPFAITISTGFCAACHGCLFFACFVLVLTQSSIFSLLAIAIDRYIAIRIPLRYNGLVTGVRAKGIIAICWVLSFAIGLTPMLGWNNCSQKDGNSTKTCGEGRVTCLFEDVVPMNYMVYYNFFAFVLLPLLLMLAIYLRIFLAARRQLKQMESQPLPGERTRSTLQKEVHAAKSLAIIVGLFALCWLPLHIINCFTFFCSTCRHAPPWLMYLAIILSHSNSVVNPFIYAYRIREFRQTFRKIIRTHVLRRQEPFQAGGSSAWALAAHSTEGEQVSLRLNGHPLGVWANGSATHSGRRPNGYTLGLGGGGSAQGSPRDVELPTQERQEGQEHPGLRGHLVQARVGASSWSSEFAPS
Test: stimulation of cAMP production in PC12 cells (adenosine A2 receptor agonist function)
Type: cell-based
Conditions: stimulation of cAMP production (A2 agonism)
Measure: log10 of EC50 (log10 of the value in nM)

>>> recorded_number("OC[C@H]1O[C@@H](n2cnc3c(N[C@H]4CCOC4)ncnc32)[C@H](O)[C@@H]1O [V]")
3.89
>>> recorded_number("OC[C@H]1O[C@@H](n2cnc3c(NC4CCOCC4)ncnc32)[C@H](O)[C@@H]1O [I, 6-(4-aminopyran)-purine Riboside]")
2.99
>>> recorded_number("O=C1NCCCC[C@@H]1Nc1ncnc2c1ncn2[C@@H]1O[C@H](CO)[C@@H](O)[C@H]1O [IV]")
2.26
>>> recorded_number("OC[C@H]1O[C@@H](n2cnc3c(NC4CCOC4)ncnc32)[C@H](O)[C@@H]1O (some centres unmarked) [II]")
3.15
>>> recorded_number("OC[C@H]1O[C@@H](n2cnc3c(N[C@@H]4CCOC4)ncnc32)[C@H](O)[C@@H]1O [III]")
2.65

---

System: adenosine A1 receptor
Test: A1 receptor mediated inhibition of isoproterenol stimulated cAMP accumulation in DDT cells
Format: cell-based
Conditions: ratio of EC50 in DDT cells (A1) to EC50 in PC12 cells (A2)
Please use true (1) whenever A1 /A2 is not below 0.002, and false (0) whenever it is.

>>> category_label("OC[C@H]1O[C@@H](n2cnc3c(N[C@@H]4CCOC4)ncnc32)[C@H](O)[C@@H]1O [III]")
"true (1)"
>>> category_label("O=C1NCCCC[C@@H]1Nc1ncnc2c1ncn2[C@@H]1O[C@H](CO)[C@@H](O)[C@H]1O [IV]")
"true (1)"
>>> category_label("OC[C@H]1O[C@@H](n2cnc3c(N[C@H]4CCOC4)ncnc32)[C@H](O)[C@@H]1O [V]")
"false (0)"
>>> category_label("OC[C@H]1O[C@@H](n2cnc3c(NC4CCOC4)ncnc32)[C@H](O)[C@@H]1O (some centres unmarked) [II]")
"true (1)"
>>> category_label("OC[C@H]1O[C@@H](n2cnc3c(NC4CCOCC4)ncnc32)[C@H](O)[C@@H]1O [I, 6-(4-aminopyran)-purine Riboside]")
"true (1)"

---

Target: adenosine A1 receptor (Mesocricetus auratus, UniProt A0A1U8BVR4)
Construct: endogenous in cells
Sequence (A0A1U8BVR4 1-326): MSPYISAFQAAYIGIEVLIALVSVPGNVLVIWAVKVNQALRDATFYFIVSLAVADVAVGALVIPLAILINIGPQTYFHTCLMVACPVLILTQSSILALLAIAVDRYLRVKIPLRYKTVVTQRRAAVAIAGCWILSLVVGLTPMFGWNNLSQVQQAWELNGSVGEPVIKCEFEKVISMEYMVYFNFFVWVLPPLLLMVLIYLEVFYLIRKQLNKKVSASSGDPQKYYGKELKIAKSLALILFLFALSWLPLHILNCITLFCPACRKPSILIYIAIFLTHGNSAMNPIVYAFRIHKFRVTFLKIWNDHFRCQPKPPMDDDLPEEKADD
Experiment: A1 receptor mediated inhibition of isoproterenol stimulated cAMP accumulation in DDT cells
Type: cell-based
Conditions: DDT cells; inhibition of isoproterenol stimulated cAMP accumulation (A1 agonism)
Catalogue of compounds with associated EC50
Measure: EC50

>>> result("OC[C@H]1O[C@@H](n2cnc3c(N[C@@H]4CCOC4)ncnc32)[C@H](O)[C@@H]1O")
"1.08 nM"
>>> result("OC[C@H]1O[C@@H](n2cnc3c(N[C@H]4CCOC4)ncnc32)[C@H](O)[C@@H]1O")
"3.4 nM"
>>> result("OC[C@H]1O[C@@H](n2cnc3c(NC4CCOCC4)ncnc32)[C@H](O)[C@@H]1O [I, 6-(4-aminopyran)-purine Riboside]")
"12 nM"
>>> result("OC[C@H]1O[C@@H](n2cnc3c(NC4CCOC4)ncnc32)[C@H](O)[C@@H]1O (some centres unmarked)")
"13 nM"
>>> result("O=C1NCCCC[C@@H]1Nc1ncnc2c1ncn2[C@@H]1O[C@H](CO)[C@@H](O)[C@H]1O")
"161 nM"
